target: UniProt Q9NQS5; assay: Antagonist activity against GPR84 (unknown origin) expressed in cell membranes assessed as inhibition of 3,3'-di-indolylmethane-induced [35S]GTPgammaS binding treated for 90 mins after 3,3'-di-indolylmethane stimulation in buffer containing 20 mM HEPES at pH 7.4 by top-count assay; format: functional
pIC50: −log10 of the molar value.
metric: pIC50

Some molecules with recorded pIC50:
# molecule, experimental-system, pIC50
measured = [
    ("Cn1cc(-c2ccc3c(c2)CCn2c-3cc(OCC3CCCO3)nc2=O)cn1 (stereo not given)", "UniProt Q9NQS5", "< 6.00"),
    ("C=CCOc1ccc2c(c1)CCn1c-2cc(OCC2CCCO2)nc1=O (stereo not given)", "UniProt Q9NQS5", "< 6.00"),
    ("CCC(O)C#Cc1ccc2c(c1)CCn1c-2cc(OCC2COc3ncccc3O2)nc1=O (stereo not given)", "UniProt Q9NQS5", "≥ 7.00"),
    ("CC(C)(O)C#Cc1ccc2c(c1)CCn1c-2cc(OCC2COc3ncccc3O2)nc1=O (stereo not given)", "UniProt Q9NQS5", "≥ 7.00"),
    ("N#CCOc1ccc2c(c1)CCn1c-2cc(OCC2CCCO2)nc1=O (stereo not given)", "UniProt Q9NQS5", "< 6.00"),
]

query: What value of pIC50 has been reported for the following molecule? CC(O)C#Cc1ccc2c(c1)CCn1c-2cc(OCC2COc3ncccc3O2)nc1=O (stereo not given)
result: ≥ 7.00

query: Reported pIC50, molecule O=c1nc(OCC2CCCO2)cc2n1CCc1cc(OCc3cccc(-c4cncnc4)n3)ccc1-2 (stereo not given) : ____
result: ≥ 6.30

query: Item under review: O=c1nc(OCC2CCCO2)cc2n1CCc1cc(OCCOc3ccccc3)ccc1-2 (stereo not given) . Reported pIC50?
result: ≥ 7.00

query: Which pIC50 is reported for this molecule? O=c1nc(OCC2COc3ncccc3O2)cc2n1CCc1cc(-c3cn[nH]c3)ccc1-2 (stereo not given)
result: ≥ 7.00

query: Entry CC(C)(C)NCc1ccc2c(c1)CCn1c-2cc(OCC2COc3ncccc3O2)nc1=O (stereo not given) has what pIC50?
result: < 6.00

* * *

biological target: G-protein coupled receptor 84 (Homo sapiens); assay: Antagonist activity against GPR84 (unknown origin) expressed in cell membranes assessed as inhibition of 3,3'-di-indolylmethane-induced [35S]GTPgammaS binding treated for 90 mins after 3,3'-di-indolylmethane stimulation in buffer containing 20 mM HEPES at pH 7.4 by top-count assay; assay type: functional
Measured IC50 by item

Consider the reported IC50 for these compounds:
# compound, IC50
records = [
    ("CC(C)N(C)C(=O)COc1ccc2c(c1)CCn1c-2cc(OCC2CCCO2)nc1=O (stereo not given)", "> 1 µM"),
    ("NC(=O)COc1ccc2c(c1)CCn1c-2cc(OCC2CCCO2)nc1=O (stereo not given)", "> 1 µM"),
    ("O=c1nc(OCC2COc3ncccc3O2)cc2n1CCc1cc(OCc3ncco3)ccc1-2 (single isomer, unassigned)", "≤ 0.1 µM"),
    ("N#Cc1ccc(-c2ccc3c(c2)CCn2c-3cc(OCC3CCCO3)nc2=O)cc1 (stereo not given)", "> 1 µM"),
    ("COc1ccc(COc2ccc3c(c2)CCn2c-3cc(OCC3CCCO3)nc2=O)cc1 (stereo not given)", "≤ 0.1 µM"),
    ("O=c1nc(OCC2COc3ncccc3O2)cc2n1CCc1cc(OCc3ccccn3)ccc1-2 (stereo not given)", "≤ 0.1 µM"),
    ("O=c1nc(OCC2CCCO2)cc2n1CCc1cc(OCc3cccc(-c4ccccc4)n3)ccc1-2 (stereo not given)", "> 1 µM"),
    ("CC(C)C(O)C#Cc1ccc2c(c1)CCn1c-2cc(OCC2COc3ncccc3O2)nc1=O (stereo not given)", "≤ 0.1 µM"),
]

query: # query: IC50 | item CCCC(O)C#Cc1ccc2c(c1)CCn1c-2cc(OCC2COc3ncccc3O2)nc1=O (stereo not given) | system: G-protein coupled receptor 84 (Homo sapiens)
result: ≤ 0.1 µM

query: Field: IC50 (G-protein coupled receptor 84 (Homo sapiens)). Entry: O=c1nc(OCC2COc3ncccc3O2)cc2n1CCc1cc(C#CCNCc3ccccc3)ccc1-2 (stereo not given)
result: ≤ 0.1 µM
